Data origin: PubChem BioAssay (NCI)

system: SNB-75 CNS; assay: NCI tumour cell line growth inhibition, 48 h

| compound | system_under_test | TGI |
| --- | --- | --- |
| CCCc1nc(Cl)nc(Cl)c1Cl | SNB-75 CNS | 6 µM |
| CC1(C)CC(=O)c2c(nc3c(ccc4ccccc43)c2-c2ccc(NC(=O)CCC(=O)Nc3ccc(-c4c5c(nc6c4ccc4ccccc46)CC(C)(C)CC5=O)cc3)cc2)C1 | SNB-75 CNS | > 100 µM |
| O=C1CCCC/C1=C\c1ccc([N+](=O)[O-])cc1 | SNB-75 CNS | 46 µM |
| O=C1c2cccnc2-c2nc(-c3cccnc3)cc3c2c1nc1ccccc13 | SNB-75 CNS | 6.91 µM |
| N#Cc1c(=O)c2ccccc2n2ccccc12 | SNB-75 CNS | > 100 µM |
| Cc1ccc(S(=O)(=O)c2nc(-c3ccccc3)oc2S(C)(=O)=O)cc1 | SNB-75 CNS | 18 µM |
| CCCC(=O)N[C@H]1CCc2cc(OC)c(OC)c(OC)c2-c2ccc(SC)c(=O)cc21 | SNB-75 CNS | 15.6 µM |
| C[C@H]1C2Cc3cc(O)ccc3[C@@]1(C)CCN2CCc1ccc(N)cc1 | SNB-75 CNS | > 100 µM |
| NC(=O)CSc1c2cc(O)ccc2nc2ccc(O)cc12 | SNB-75 CNS | > 10 µM |
| COc1cc2c(c3c1c(=O)c1ccccc1n3C)C=CC(C)(C)O2 | SNB-75 CNS | > 100 µM |
| OC1=CN=COc2ccccc21 | SNB-75 CNS | > 100 µM |
| CC(C)(C)C(=O)Oc1ccc(/C=C/C(=O)c2ccc(OC(=O)C(C)(C)C)cc2)cc1 | SNB-75 CNS | > 100 µM |
| C1CCCCC2(CCCCCCCCC3(CCC1)SCCS3)SCCS2 | SNB-75 CNS | > 100 µM |
| C=C1C(=O)OC2C1CCC(C)C1(O)C=CC(=O)C21C (stereo unspecified) | SNB-75 CNS | > 10 µM |
| CC1CN=C(Nc2cccc(F)c2)S1 (stereo unspecified) | SNB-75 CNS | > 100 µM |
| CC12CC(=O)Nc3ccccc3N1C(c1ccccc1)=NO2 (stereo unspecified) | SNB-75 CNS | > 100 µM |
| CCCN(CCC)c1ccc(C=O)c(Cl)c1 | SNB-75 CNS | 55.8 µM |
| O=C(N=Nc1ccc(Cl)cc1Cl)NNc1ccc(Cl)cc1Cl | SNB-75 CNS | > 100 µM |
| CSc1ncnc2c1ncn2CC(=O)C1CCC2C3CCC4=CC(=O)CCC4(C)C3CCC12C (stereo unspecified) | SNB-75 CNS | 27.9 µM |
| CC(C)(C)[Si](C)(C)OC1[C@@H](CNC(N)=O)O[C@@H](n2cnc3c(NC(=O)Nc4ccccc4)ncnc32)[C@H]1O[Si](C)(C)C(C)(C)C (stereo partly specified) | SNB-75 CNS | 10.9 µM |
| O=Cc1ccc(OC[C@H]2COC(=O)N2)cc1 | SNB-75 CNS | > 100 µM |
